Each recorded value in this set is attributed to patent US9078899B2.

Test target: CRAC channel (Homo sapiens)
Construct: host or cells: HEK293
Sequence (Q96D31 whole entry): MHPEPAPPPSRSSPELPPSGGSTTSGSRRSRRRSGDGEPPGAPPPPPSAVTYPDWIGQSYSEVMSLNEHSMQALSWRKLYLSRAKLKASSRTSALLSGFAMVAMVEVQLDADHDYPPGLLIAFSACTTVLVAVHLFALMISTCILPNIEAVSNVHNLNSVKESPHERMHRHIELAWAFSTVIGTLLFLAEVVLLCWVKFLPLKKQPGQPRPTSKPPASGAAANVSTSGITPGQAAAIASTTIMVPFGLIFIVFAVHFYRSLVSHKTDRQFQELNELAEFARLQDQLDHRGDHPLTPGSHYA
Assay: HEK Calcium Influx Assay (FLIPR)
Assay type: cell-based
Setup conditions: 10 μM; endogenous SOC in HEK293 cells, thapsigargin store depletion, Ca2+ signal 9.5-10 min post-administration; read-out: % inhib.[@ 10 μM] FLIPR
Quantity: inhibition at 10 µM

Smiles repr: COc1ccc(F)cc1-c1cc(C(=O)Nc2c(F)cccc2F)nn1C
inhibition at 10 µM: > 70%
--
Smiles repr: Cn1nc(C(=O)Nc2ccccc2C#N)cc1-c1c(F)cccc1C(F)(F)F
inhibition at 10 µM: 50 to 70%
--
Smiles repr: CCOc1ccc(OC)cc1-c1cc(C(=O)Nc2ccncc2F)nn1C
inhibition at 10 µM: < 50%
--
Smiles repr: COc1cc(F)c(NC(=O)c2cc(-c3cc(OC)ccc3OC)n(C)n2)c(F)c1
inhibition at 10 µM: > 70%

Write down the reported inhibition at 10 µM of Cc1cncc(F)c1NC(=O)c1cc(-c2c(F)cccc2C(F)(F)F)n(C)n1 , test system: CRAC channel (Homo sapiens).
> 70%

Would you kindly repeat that for Cc1ccc(C(F)(F)F)cc1-c1cc(C(=O)Nc2ccncc2F)nn1C ?
50 to 70%
